Assay: Inhibition of Staphylococcus aureus MurA
readout label: IC50 (nM)
The reply should contain only the number, in nM.

O=c1oc2c(Cl)cc(O)c(Cl)c2s1 ... 1090

Query: What measured IC50 goes with `O=[N+]([O-])/C(Br)=C/c1ccc(Br)o1` ?
Response: 3900

* * *

Experiment: Inhibition of Enterobacter cloacae MurA
readout label: pIC50
# pIC50: negative log10 of molar concentration; output just the value

Query: Fill in: pIC50 of `CC1=C(O)C(=O)[C@H]2O[C@@H]2C1=O` is ___
Response: 4.85

* * *

Listed here: items and their measured Activity.
Test system: Escherichia coli DH5[alpha]
Experiment: Inhibition of Escherichia coli DH5alpha C-terminal His6-tagged MurA expressed in Escherichia coli BL21(DE3) assessed as residual activity at 100 uM using UNAG as substrate after 15 mins in presence of PEP by malachite green dye based spectrophotometric method relative to control
Value expressed in %; do not type the unit.

Examples with their reported Activity follow.
CCOc1ccc(N2C(=O)[C@@H]3C4c5ccccc5C(C(=O)O)(c5ccccc54)[C@@H]3C2=O)cc1 ... 100
Cc1ccccc1-c1cccc(CN[C@H]2CCCN(c3ncccn3)C2)c1 ... 86
C[C@@H](Oc1ccc2ccccc2c1)C(=O)NCc1nc(-c2ncccn2)no1 ... 98
c1ccc(CN2CC[C@@H](Nc3nncc(-c4cc5ccccc5o4)n3)C2)cc1 ... 82

Query: Need Activity, item `CC(=O)N1CCN([C@H](C(=O)O)c2c(C(=O)O)n(Cc3ccccc3)c3ccccc23)CC1`
Response: 96

Query: What measured Activity goes with `O=C(O)[C@H]1C[C@@H](C(=O)N2CCCC2)CN(C(=O)c2[nH]nc3c2CCCC3)C1` ?
Response: 100

Query: Which Activity value is on record for `CN1CCN([C@H](C(=O)O)c2c(C(=O)O)n(Cc3ccccc3)c3ccccc23)CC1` ?
Response: 94

* * *

Experiment: Inhibition of Escherichia coli MurA
readout label: IC50 (µM)
Express it in µM; write the number only.

O=[N+]([O-])/C(Br)=C/c1ccc(Br)o1 ... 2.8
O=c1oc2c(Cl)cc(O)c(Cl)c2s1 ... 0.28
C=C(C(=O)OC)[C@@H]1[C@@H](CCCCCCCC)OC(=O)[C@@H]1O ... 2.8

Query: # input molecule: C=C1C(=O)OCC1O (racemic) [(+/-)-TULIPALINE B] ; wanted: its IC50
Response: 0.2

* * *

// values below are reported Activity
System: Escherichia coli DH5[alpha]
Experiment: Inhibition of Escherichia coli DH5alpha C-terminal His6-tagged MurA expressed in Escherichia coli BL21(DE3) assessed as residual activity at 100 uM using UNAG as substrate after 15 mins in presence of PEP by malachite green dye based spectrophotometric method relative to control

Examples from the recorded data:
CCOc1ccc(N2C(=O)[C@@H]3C4c5ccccc5C(C(=O)O)(c5ccccc54)[C@@H]3C2=O)c([N+](=O)[O-])c1 ... 78%
Cc1ncc2c(c1CNC(=O)c1cc3ccccc3[nH]1)CCN(C(=O)C1=CCCC1)C2 ... 66%
Cc1cc(C)nc(-c2cccc3c2O[C@@H](CNC(=O)c2ccc(N4CCN(C)CC4)cc2)C3)n1 ... 98%
O=C(O)c1c([C@@H](C(=O)O)N2CCN(c3ccccn3)CC2)c2ccccc2n1Cc1ccccc1 ... 87%
Cc1ccccc1-n1cc(CN[C@H]2CCCN(c3ncccn3)C2)cn1 ... 99%

Query: # query: Activity | item C[C@@H]1O[C@@H]1P(=O)(O)O [FOSFOMYCIN] | system: Escherichia coli DH5[alpha]
Response: < 50%

Query: Notebook: pull reported Activity for Escherichia coli DH5[alpha], entry `O=C(O)C[C@H]1c2ccccc2CCN1C(=O)c1cc(=O)[nH]c2ccccc12`
Response: 85%

Query: Return Activity measured with Escherichia coli DH5[alpha] given this molecule: `O=C(O)c1nn(CCCc2ccccc2)c2c1CN(C(=O)c1cnc[nH]1)CC2`
Response: 96%

Query: Provide the documented Activity with Escherichia coli DH5[alpha] as the system for `O=C(C1=C(O)C(=O)N(c2nnc(SCc3ccccc3)s2)[C@@H]1c1ccc(O)cc1)c1ccco1`
Response: 62%
